Every entry's value here was drawn from the RNAGym collection of RNA variant scans (doi:10.1126/science.aae0568).

B1: tRNA (parent)
chain: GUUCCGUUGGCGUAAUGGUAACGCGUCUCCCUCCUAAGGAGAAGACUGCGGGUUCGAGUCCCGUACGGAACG

- Variants of: B1
- ASSAY_TEXT: yeast fitness relative to wild type (ratio to wild type); higher = fitter; tRNA-Arg(CCU), competitive growth, 37 C, YPD
Fewer inactive variants are shown than the library holds.
Measured yeast fitness, listed per entry for reference.
RECORDED_ENDPOINT: yeast fitness

residue_change="U2A C5G G63C G67C A69U" relation_qualifier=≤ readout_value=0.5
residue_change="A45C G58C" relation_qualifier== readout_value=1.06
residue_change="C30A G51C C55A C66U" relation_qualifier=≤ readout_value=0.5
residue_change="C29U C62A C66U" relation_qualifier=≤ readout_value=0.5
residue_change="G10C A69C" relation_qualifier== readout_value=0.785
residue_change="A15U U19A A20G A40U A43U" relation_qualifier== readout_value=0.542
residue_change="C22G A40U A43C" relation_qualifier== readout_value=0.698
residue_change="A20C C34U C66U" relation_qualifier== readout_value=0.543
residue_change="C55G C60G" relation_qualifier=≤ readout_value=0.5
residue_change="A15G C29G A37U" relation_qualifier=≤ readout_value=0.5
residue_change="G17A U28C C46U G63A" relation_qualifier=≤ readout_value=0.5
